Each recorded value in this set is attributed to the nanobody polyreactivity screen of Harvey et al. (2022).

- assay overview: yeast display, Sf9 membrane polyspecificity reagent, FACS + sequencing; frameworks hold sequencing errors

{"biopolymer sequence": "QVQLVESGGRLVQAGGRLRLSCAASGSISASYAMGWYRQAPGKERELVAAITSGGSTYYADSVKGRFTISRDNAKYTVYLQMNSLKPEDTAVYYCAKRPKRTYYPHIGYDYWGLGTQVTVSS", "polyreactivity (PSR sort gate)": "low polyreactivity"}
{"biopolymer sequence": "QVQLVESGGGLVQAGGSLRLSCAASGSTFPGYAMGWYRQAPGKERELVAAINGRGGSTYYADSVKGRFTISRDNAKNTVYLQMNSLKPEDSAVYYCAAFVGSRSAKYIKYWGQGTQVTVSS", "polyreactivity (PSR sort gate)": "high polyreactivity"}
{"biopolymer sequence": "QVKLVESGGGLVKAGGILRLSCAASGRTFRRNAMGWYRQPPGKESELVAAISSSGGSTYYADSVKGRFTISRDNAKNTVYLQMNSLKPEDTAVYYCNAYRYYVYDTYDGHGYWGQGTQVTVSS", "polyreactivity (PSR sort gate)": "high polyreactivity"}
{"biopolymer sequence": "QVQLVESGGGLVQAGGSLRLSCAASGITFPGYARGWYRQAPGKASELVAAIDWSGDGTYYADSVKGRFTISRDNAKNTVYLQMNSLKPEDTAVYYCAKDNYPNHCTVRAVIYDYWGQGTQVTVSS", "polyreactivity (PSR sort gate)": "low polyreactivity"}

* * *

- assay overview: yeast display, Sf9 membrane polyspecificity reagent, FACS + sequencing; frameworks hold sequencing errors
measurement kind: polyreactivity (PSR sort gate)

{"biopolymer sequence": "QVQLVESGGGLVQAGGSLRLSCAASGRIFNRNAMGWYRQAPGKERELVATISFNDGSTYYADSVKGRFRISRDIAKNTVYLQMNSLKPEDTAVYYCAKEGYVFEYDYWGKGTQVTVSS", "polyreactivity (PSR sort gate)": "low polyreactivity"}
{"biopolymer sequence": "QVQLVESGGGLVQAGGSLRLSCAASGIIFTTNMGWYRQAPGKERELVATIRVNGGRTYYADSVKGRFTISRDNAQNTVYLQMNSLKPEDTAVYYCAARYSAGAQRYGYWGQGTQVTVSS", "polyreactivity (PSR sort gate)": "high polyreactivity"}
{"biopolymer sequence": "QVQLVESGGGLVQAGGSLRLSCAASGSNFVTYAMGWYRQAPGKERELVAAISYSGGSTYADSVKGRFTISRDNAKNTVYLQMNILKPEDTAVYYCNTDTSVDVRFDYWGQGTQVTVSS", "polyreactivity (PSR sort gate)": "low polyreactivity"}
{"biopolymer sequence": "QVQLVESGGGLVQAGGSLRLSCAASGRTFQYYAMGWYRQAPGKERELVAAISGIGTSTSYADSVKGRFTISRDNAKNTVYLQMNSLKPEDTAVYYCAARLLVPCSPWYTNYYWGQGTQVTVSS", "polyreactivity (PSR sort gate)": "low polyreactivity"}
{"biopolymer sequence": "QVQLVESGGGLVQAGGSLRLISAASGFIFLFYAMGWYRQAPGKERELVAAISSGVSTNYADSVKGRFTISRDNAKNTVYLQMNCLKPEDTAVYYCTTTQSTSLLYDYWGPGTQVTVSS", "polyreactivity (PSR sort gate)": "low polyreactivity"}

For every item below, please supply its polyreactivity (PSR sort gate).
1. QVKLEESGGRLVQAGGTLRLRCAASGIIYRFYTIGWYRQAPGKERELVAAIRSGGRTYYADSVKGRFTISRDNAKNTVYLQINSLKPEDSAVYYCAKEPSRYSRYNYWGQGTQVTVSS
2. QVQLVESGGGLVQAGGSHRLSCAASGLNFGDNTMGWYRQAPGKERELVAAISGDVITTYADSVKGRFTISRDNAKNTVYLQMNSLKPEDTAVYYCNAEVKRYYSGLPQYFAGLGYWGQGTQVTVSS

Solution:
["high polyreactivity", "low polyreactivity"]

* * *

- assay overview: yeast display, Sf9 membrane polyspecificity reagent, FACS + sequencing; frameworks hold sequencing errors

{"biopolymer sequence": "QVQLVESGGGLVQAGGSLRLSCAASGITFFRYTMGWYRQAPGKEREFVAAINIRGTRTYYADSVKGRFTISRDNAKNTVYLQMNSLKPEDTAVYYCAAGYAYRYSGLSYDVDYWGQGTQVTVSS", "polyreactivity (PSR sort gate)": "high polyreactivity"}
{"biopolymer sequence": "QVQLVESGGGLVQAGGSLRLSCAASGYIFVRYAMGWYRQAPGKEREFVAAISSSGGSTRYADSVKGRFTISRDNAKNTVYLQMNSLKPEDTAVYYCAATRVARHGSPMYYWGQGTEVTVSS", "polyreactivity (PSR sort gate)": "high polyreactivity"}
{"biopolymer sequence": "QVQLVESGGGLVQAGGSLRLISAASGSTFKIYAMGWYRQAPGKERELVAAITWSGGSTYYADSVKGRFTISRDNAKNTVYLQMNSLKPEDPAVYYCAAVQTYSRYYYWGQGTQVTVSS", "polyreactivity (PSR sort gate)": "high polyreactivity"}

* * *

- assay overview: yeast display, Sf9 membrane polyspecificity reagent, FACS + sequencing; frameworks hold sequencing errors
measurement kind: polyreactivity (PSR sort gate)

These recorded examples may help you get a feel for the data.
{"biopolymer sequence": "QVQLVESGGGLVQAGGSLRLSCAASGRIFGNYAMGWYRQAPGKERELVAAITSGARTYYADSVKGRFTLSRDNAKNTVYLQMNSLKPEDTAVYYCAAYHKSYSNRYDYWGQGTHVTVSS", "polyreactivity (PSR sort gate)": "high polyreactivity"}
{"biopolymer sequence": "QVQLVESGGGLVQAGGSLRLSCAASGFTFSRNAMGWYIQAPGKERELVAAISQSGGSTYYADSVKGRFTISRDNAKNTVYLQMNSLKPEDTAVYYCAAQSFAQYGWRYGYWGQGTQVTVSS", "polyreactivity (PSR sort gate)": "high polyreactivity"}
{"biopolymer sequence": "QVQLVESGGGLVQAGGSLRLSCAASRSIFGYNAMGWYRPAPGKEREFVAAIRWSSGSTYYADSVKGRFTISRDNAKNTVYLQMNSLKPEDTAVYYCATRQTYLYLGQGTQVTVSS", "polyreactivity (PSR sort gate)": "high polyreactivity"}
{"biopolymer sequence": "QVQLVESGGGLVQAGGSLRLSCAASGSIFVAYAKGWYRPAPGKERELVAAISSSGGTTYYADSVKGRFTISRDNAKITVYLQMNSLKPEDSAVYYCAARDYKYYYWGQGTQVTVSS", "polyreactivity (PSR sort gate)": "high polyreactivity"}

Below are some sequences; for each one, tell me its polyreactivity (PSR sort gate).
1. QVQLVESGGGLVQEGGSLRLSCAASGIIFGYNAMGWYRQAPGKERELVAAISRRGGTTYYADSVKGRLTISRDNSKNTVYLQMNSLKPEDTAVYYCAAQWSPTEHEYNYSGQGTQVTVSS
2. QVQLVESGGCLVQAGGSLRLSCAASGSIGTYVMGWYRQAPGKQRELVAAITSNGGRKYYADSVKGRFTISRDNAKNTVYLQMNSLKPEDTAVYYCATVNYSPRYTMYYWGQGTQVTVSS
3. QVQLVESGGGLVQAGGSLRLSCAASGSTFGRYAMGWYRQAPGKERELVAAITSDTGHTNYADSVKGRFTISRDNAKNTVYLQMNSLKPEDTAVYYCAAANFWVLWGHVIGNYDSWGQGTQVTVSS
4. QVQLVESGAGLVQAGGSLRLSCAASGSIFDYYAMGLYRQAPGKERELVAVITRGGSTYYADSVKGRFTISRDNAKNTDSLQMNSLKPEDTAVYYCNASRGYKSRYEYWGQGTQVTVSS
5. QVQLVESGGGLVQAGGSLRLSCGASGRIFGYNAMGWYRQARGKERELVAAITTSGGSTYYADSVKGRFTLSRDNEKNTVYFQMNSLKQEDTAVYYCARDSLQVFYPYASDDYWGLGTQVTVSS
6. QVQLVESGGGLVQAGGSLRLSCAASGRTFEYYAMGWYRPAPGKERELVAAITWSVGSTYYADSVKGRFTISRDNAKNTVYLQMNSLKPEDTAGYYCAVDVVYTWPFPVEYYYWGQGTQVTVSS

Solution:
low polyreactivity
high polyreactivity
low polyreactivity
high polyreactivity
low polyreactivity
high polyreactivity

* * *

- assay overview: yeast display, Sf9 membrane polyspecificity reagent, FACS + sequencing; frameworks hold sequencing errors
measurement kind: polyreactivity (PSR sort gate)

Worked cases, answers included:
{"biopolymer sequence": "QVQLGESGGGLVQAGGSLRLSCAASGRTFYGYPMGWYRQAPGKERELVAAISRNGASTFYADSVKGRFTISRDNAKNTVYLQMNSLKPEDTAVYYCNARSWRHTDTSFEYWGQGTQVTVSS", "polyreactivity (PSR sort gate)": "high polyreactivity"}
{"biopolymer sequence": "QVQLVESGGGLVQAGGSLRLRCAASGLIFITYAMGRYRQAPGKERELVATITLRGGSTYYADSVKGRFTISRDNAKNTVYLQMNSLKPEDTAVYYCNADSIYYGYDYWGQGTQVTVSS", "polyreactivity (PSR sort gate)": "low polyreactivity"}
{"biopolymer sequence": "QVQLVESGGGLVQAGGSLRLSCAASGSISAPNAMGWYRQAPGKERELVATINSGGRTNYADSVKGRFTISRDNSKNTVYLQMNSLKPEDTAVYYCNTVFRGAYTYGDVSKYDYWGQGTQVTVSS", "polyreactivity (PSR sort gate)": "low polyreactivity"}
{"biopolymer sequence": "QDQLVESGGGLVQAGGSLRLSCDASGSTFLVYAMGWYRQAPGKERELVAAITQIDGSTYYADSVKGRFTISRDNAKNTVYLQMNSLKPEDTAVYYCAARYFWTYEYDYWGHGTQVTVSS", "polyreactivity (PSR sort gate)": "low polyreactivity"}

Exercise: Tell me measured polyreactivity (PSR sort gate) for QVQLVESGGGLVQAGGSLRLSCAASGIIFEFYAMGWYRQAPGKEREFVAAISKNGGRTYYADSVKGRFTISRDNAKTSVYLQLNSLKPEDTAVYYCDARYRPQANKYYYWGQGTQVTVSS please.
Solution: high polyreactivity
